The following molecules are shown together with reported EGFR % Activity Set3 values.
target: UniProt P00533; test: ADP-Glo kinase assay, EGFR; format: biochemical; parameters: purchased BPS Bioscience (assay run externally by the vendor); conditions: Log[nM] 1.5; Set3
metricName: EGFR % Activity Set3 (%)

Cc1ccccc1Nc1ncnc2[nH]ccc12; 122
Cc1cccc(Nc2ncnc3[nH]ccc23)c1; 33
COc1ccc(Nc2ncnc3[nH]ccc23)cc1; 108

###

molecular target: EGFR (Homo sapiens, UniProt P00533); assay: ADP-Glo kinase assay, EGFR; type: biochemical; design: purchased BPS Bioscience (assay run externally by the vendor); conditions: Log[nM] 1.5; Set1
Sequence (P00533 25-1210): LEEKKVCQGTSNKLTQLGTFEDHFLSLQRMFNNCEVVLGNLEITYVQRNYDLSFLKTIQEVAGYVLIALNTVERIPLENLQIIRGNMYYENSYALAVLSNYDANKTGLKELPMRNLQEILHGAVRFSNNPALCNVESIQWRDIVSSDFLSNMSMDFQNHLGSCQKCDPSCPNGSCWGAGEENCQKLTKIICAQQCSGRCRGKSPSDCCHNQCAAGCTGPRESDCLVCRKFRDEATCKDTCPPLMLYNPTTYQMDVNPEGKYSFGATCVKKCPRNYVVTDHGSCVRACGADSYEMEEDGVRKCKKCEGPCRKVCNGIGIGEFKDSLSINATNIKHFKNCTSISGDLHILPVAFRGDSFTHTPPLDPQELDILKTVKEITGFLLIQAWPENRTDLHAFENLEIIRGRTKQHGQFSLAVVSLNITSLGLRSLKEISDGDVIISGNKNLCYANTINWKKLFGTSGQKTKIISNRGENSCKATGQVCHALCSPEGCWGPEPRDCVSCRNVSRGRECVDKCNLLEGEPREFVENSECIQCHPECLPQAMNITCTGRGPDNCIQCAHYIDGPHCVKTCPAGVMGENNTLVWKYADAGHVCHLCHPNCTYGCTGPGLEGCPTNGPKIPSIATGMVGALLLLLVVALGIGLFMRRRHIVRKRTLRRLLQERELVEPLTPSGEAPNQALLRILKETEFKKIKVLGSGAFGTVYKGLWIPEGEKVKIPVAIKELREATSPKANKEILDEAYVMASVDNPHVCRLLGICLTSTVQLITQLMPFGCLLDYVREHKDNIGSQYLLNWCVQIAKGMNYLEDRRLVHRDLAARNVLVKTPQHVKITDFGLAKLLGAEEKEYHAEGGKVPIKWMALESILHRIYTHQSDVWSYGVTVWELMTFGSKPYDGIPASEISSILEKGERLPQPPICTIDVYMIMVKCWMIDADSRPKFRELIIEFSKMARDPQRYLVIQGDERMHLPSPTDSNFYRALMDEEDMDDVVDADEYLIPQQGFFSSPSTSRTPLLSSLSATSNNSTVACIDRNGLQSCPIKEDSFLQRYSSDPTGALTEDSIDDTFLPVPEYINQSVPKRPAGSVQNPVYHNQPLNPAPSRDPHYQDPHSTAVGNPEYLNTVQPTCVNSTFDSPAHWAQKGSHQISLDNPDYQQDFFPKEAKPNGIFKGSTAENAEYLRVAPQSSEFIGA
// reported EGFR % Activity Set1 for each item listed
metricName: EGFR % Activity Set1

c1ccc(Cc2ccc(Nc3ncnc4[nH]ccc34)cc2)cc1; 66%
Clc1cccc(Nc2ncnc3[nH]ccc23)c1; 17%
c1ccc(Oc2ccc(Nc3ncnc4[nH]ccc34)cc2)cc1; 72%
Brc1ccc(Nc2ncnc3[nH]ccc23)cc1; 78%

###

target: aurora A kinase (AURKA) (Homo sapiens); construct: purchased BPS Bioscience (assay run externally by the vendor); experiment: ADP-Glo kinase assay, Aurora A; type: biochemical; conditions: Log[nM] 4.5; Set3
metricName: Aurora A % Activity Set3 (%)

Cc1cccc(Nc2ncnc3[nH]ccc23)c1; 8
c1ccc(Nc2ncnc3[nH]ccc23)cc1; 13
Clc1ccc(Nc2ncnc3[nH]ccc23)cc1Br; 30
COc1ccc(Nc2ncnc3[nH]ccc23)cc1; 13
Fc1cc(Nc2ncnc3[nH]ccc23)ccc1Cl; 7
Brc1cccc(Nc2ncnc3[nH]ccc23)c1; 5
Clc1cccc(Nc2ncnc3[nH]ccc23)c1; 8
Clc1ccccc1Nc1ncnc2[nH]ccc12; 14
FC(F)(F)c1cccc(Nc2ncnc3[nH]ccc23)c1; 11

###

Listed here: items and their measured pIC50.
molecular target: aurora A kinase (AURKA) (Homo sapiens, UniProt O14965); construct: purchased BPS Bioscience (assay run externally by the vendor); test: ADP-Glo kinase assay, Aurora A; type: biochemical; conditions: 10 µM ATP, triplicate; read-out: AURKA IC50 ± SD
Sequence (O14965 whole entry): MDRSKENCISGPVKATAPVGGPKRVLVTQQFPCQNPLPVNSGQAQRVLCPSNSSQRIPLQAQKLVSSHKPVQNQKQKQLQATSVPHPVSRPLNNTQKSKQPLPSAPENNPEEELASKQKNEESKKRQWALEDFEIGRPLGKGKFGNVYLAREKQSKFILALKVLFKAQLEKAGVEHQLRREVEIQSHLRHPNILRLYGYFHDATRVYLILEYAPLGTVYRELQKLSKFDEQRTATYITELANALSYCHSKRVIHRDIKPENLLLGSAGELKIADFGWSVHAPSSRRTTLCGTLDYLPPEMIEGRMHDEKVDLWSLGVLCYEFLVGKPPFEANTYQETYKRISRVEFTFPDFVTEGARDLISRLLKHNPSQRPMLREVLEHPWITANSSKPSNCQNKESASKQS
pIC50: −log10 of the molar value.
metricName: pIC50

Clc1ccc(Nc2ncnc3[nH]ccc23)cc1; 5.29
Brc1ccc(Nc2ncnc3[nH]ccc23)cc1; 5.43
Cc1cccc(Nc2ncnc3[nH]ccc23)c1; 5.46
Nc1nc(Nc2cccc(Br)c2)c2cc[nH]c2n1; 5.34

###

molecular target: aurora A kinase (AURKA) (Homo sapiens); construct: purchased BPS Bioscience (assay run externally by the vendor); assay: ADP-Glo kinase assay, Aurora A; type: biochemical; conditions: Log[nM] 3.5; Set1
The label Y is reserved for Aurora A % Activity Set1 strictly under 60%; N covers values equal to or above it.

c1ccc(Oc2ccc(Nc3ncnc4[nH]ccc34)cc2)cc1 [Compound 17]; N
Cc1cccc(Nc2ncnc3[nH]ccc23)c1 [Compound 12]; Y
Cc1ccccc1Nc1ncnc2[nH]ccc12 [Compound 15]; N
Cc1ccc(Nc2ncnc3[nH]ccc23)cc1 [Compound 9]; N
Clc1ccccc1Nc1ncnc2[nH]ccc12 [Compound 14]; N
c1ccc(Nc2ncnc3[nH]ccc23)cc1 [Compound 1]; N
Clc1ccc(Nc2ncnc3[nH]ccc23)cc1 [Compound 4]; N
Nc1nc(Nc2cccc(Br)c2)c2cc[nH]c2n1 [Compound 8]; Y
Clc1ccc(Nc2ncnc3[nH]ccc23)cc1Cl [Compound 5]; Y

###

molecular target: aurora A kinase (AURKA) (Homo sapiens, UniProt O14965); construct: purchased BPS Bioscience (assay run externally by the vendor); test: ADP-Glo kinase assay, Aurora A; format: biochemical; conditions: Log[nM] 5.0; Set2
metricName: Aurora A % Activity Set2 (%)

Cc1ccc(Nc2ncnc3[nH]ccc23)cc1; 9
FC(F)(F)c1cccc(Nc2ncnc3[nH]ccc23)c1; 11
Clc1ccc(Nc2ncnc3[nH]ccc23)cc1; 10

###

target: aurora A kinase (AURKA) (Homo sapiens, UniProt O14965); construct: purchased BPS Bioscience (assay run externally by the vendor); assay: ADP-Glo kinase assay, Aurora A; format: biochemical; details: Log[nM] 3.5; Set3
List of Aurora A % Activity Set3 values.
metricName: Aurora A % Activity Set3 (%)

COc1ccc(Nc2ncnc3[nH]ccc23)cc1; 76
Brc1ccc(Nc2ncnc3[nH]ccc23)cc1; 53
Cc1cccc(Nc2ncnc3[nH]ccc23)c1; 53
Nc1nc(Nc2cccc(Br)c2)c2cc[nH]c2n1; 59
FC(F)(F)c1cccc(Nc2ncnc3[nH]ccc23)c1; 72

###

molecular target: aurora A kinase (AURKA) (Homo sapiens); construct: purchased BPS Bioscience (assay run externally by the vendor); test: ADP-Glo kinase assay, Aurora A; assay type: biochemical; details: Log[nM] 2.5; Set1
metricName: Aurora A % Activity Set1 (%)

FC(F)(F)c1cccc(Nc2ncnc3[nH]ccc23)c1; 108
Clc1cccc(Nc2ncnc3[nH]ccc23)c1; 95
Cc1cccc(Nc2ncnc3[nH]ccc23)c1; 89
c1ccc(Nc2ncnc3[nH]ccc23)cc1; 99
COc1ccc(Nc2ncnc3[nH]ccc23)cc1; 108
c1ccc(Cc2ccc(Nc3ncnc4[nH]ccc34)cc2)cc1; 90
Clc1ccc(Nc2ncnc3[nH]ccc23)cc1Br; 95
Cc1ccc(Nc2ncnc3[nH]ccc23)cc1; 99
Cc1ccccc1Nc1ncnc2[nH]ccc12; 103
Fc1cc(Nc2ncnc3[nH]ccc23)ccc1Cl; 104
Nc1nc(Nc2cccc(Br)c2)c2cc[nH]c2n1; 96
Clc1ccc(Nc2ncnc3[nH]ccc23)cc1; 103
Clc1ccc(Nc2ncnc3[nH]ccc23)cc1Cl; 103
Clc1ccccc1Nc1ncnc2[nH]ccc12; 101
c1ccc(Oc2ccc(Nc3ncnc4[nH]ccc34)cc2)cc1; 102

###

target: aurora A kinase (AURKA) (Homo sapiens); construct: purchased BPS Bioscience (assay run externally by the vendor); assay: ADP-Glo kinase assay, Aurora A; format: biochemical; conditions: Log[nM] 3.0; Set1
metricName: Aurora A % Activity Set1 (%)

FC(F)(F)c1cccc(Nc2ncnc3[nH]ccc23)c1; 94
Cc1ccccc1Nc1ncnc2[nH]ccc12; 92
Clc1ccc(Nc2ncnc3[nH]ccc23)cc1Cl; 91
Clc1ccc(Nc2ncnc3[nH]ccc23)cc1Br; 95

###

molecular target: EGFR (Homo sapiens); assay: ADP-Glo kinase assay, EGFR; assay type: biochemical; parameters: purchased BPS Bioscience (assay run externally by the vendor); settings: Log[nM] 0; Set3
Listed here are molecules together with their documented EGFR % Activity Set3.
metricName: EGFR % Activity Set3

Brc1ccc(Nc2ncnc3[nH]ccc23)cc1; 103%
c1ccc(Oc2ccc(Nc3ncnc4[nH]ccc34)cc2)cc1; 99%
c1ccc(Nc2ncnc3[nH]ccc23)cc1; 103%
Cc1ccccc1Nc1ncnc2[nH]ccc12; 121%

###

EGFR % Activity Set2 by entry:
target: EGFR (Homo sapiens, UniProt P00533); test: ADP-Glo kinase assay, EGFR; type: biochemical; design: purchased BPS Bioscience (assay run externally by the vendor); conditions: Log[nM] 4.5; Set2
metricName: EGFR % Activity Set2 (%)

Clc1ccc(Nc2ncnc3[nH]ccc23)cc1Br [Compound 7]; 1
Clc1ccc(Nc2ncnc3[nH]ccc23)cc1 [Compound 4]; 1
Brc1ccc(Nc2ncnc3[nH]ccc23)cc1 [Compound 10]; 1
